B1: TPPP (parent)
chain: LCKDCQVIDGRNVTVTDVDIVFSK

# Variants of: B1
# assay text: protein stability index of a GFP-peptide fusion (GPS, HEK-293T) (PSI 1-6); higher = more stable;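 note: lentivirally expressed fusions sorted by FACS into six bins by GFP to DsRed ratio, PSI derived from sequencing read proportions per bin multiplied by bin number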
# assay setup: c terminus: a fixed tail appended
Assign class by protein stability index: not lower than 2 means Y; lower than 2 means N.

alteration | category
F22S | Y
F22L | Y
N12Y | Y
L1V | Y
F22P | Y
K3A | Y
S23F | N
C2S | Y
V13K | Y
R11K | Y
D19W | Y
V21F | N
V7H | Y
V15F | Y
D19N | Y
V7M | Y
C5G | Y
V21D | Y
D17M | Y
Q6R | Y
N12V | N
T14L | N
R11Y | N
Q6N | Y
V7S | Y
V21P | Y
T14N | Y
I8F | Y
D4R | Y
S23I | Y
G10H | Y
V21G | Y
T16L | N
Q6K | Y
C5D | Y
D19M | Y
V15A | Y
Q6W | Y
L1H | Y
R11L | N
G10C | Y
D9Q | Y
V21R | Y
V21Y | Y
